experiment: NCI Yeast Anticancer Drug Screen. Data for the mec2-1 strain (AID 157); settings: S. cerevisiae mec2-1 strain, at 50.0 µM, active compounds read high
Compounds without any hit were thinned out: in the full panel of roughly 79,000, 15% have a hit.
parameter measured: growth inhibition (%)
Give the number; % is assumed, so skip it.

>>> measured_number("CC(C)(CCc1nc2ccccc2[nH]1)C(=O)O")
-6.35
>>> measured_number("NC(=O)CNCC1Cc2ccccc21 (configuration not stated)")
6.85
>>> measured_number("CC(=O)ON(C(=O)c1ccccc1)c1ccccc1")
0.95
>>> measured_number("CCOC(=O)c1c(NNc2ccccc2)nc2ccccc2c1-c1ccccc1")
-2.05
>>> measured_number("N#C/C=C\\c1ccc(C#N)cc1")
-1.5
>>> measured_number("CCOC(=O)/C(C#N)=N/Nc1ccc(S(=O)(=O)NC(C)=O)cc1")
-10.5
>>> measured_number("O=C1c2ccccc2-c2ccc(N3C(=O)C=CC3=O)cc21")
98.6
>>> measured_number("COc1ccc(C2=C(OC(C)=O)c3cccn3-c3ccccc3S2)cc1")
-49.9

Tell me measured growth inhibition for "Cc1ccc(N=C(N)N)cc1" please.
0.3

Determine its reported growth inhibition: "Oc1cc(O)cc(/C=C/c2ccc(O)c(O)c2)c1"
-2.35

Give the reported growth inhibition for this molecule. "O=C(NCCN1CCCCC1)c1ccc(Br)cc1"
-16.4

Given the molecule COc1nc(NC2OC(CO)C(O)C(O)C2O)cc(=O)[nH]1 (configuration not stated) , write its reported growth inhibition.
-7.45

Identify the reported growth inhibition for the following entry. C=CCCC1CC(OCC)OC(CCC=C)O1 (configuration not stated)
1.15

Report growth inhibition for CC(=O)OC1C(O)C(C)OC(OC2C(C)OC(OC(=O)[C@@H]3CC[C@@H]4[C@H](C3)OC3(C[C@@H](OC(=O)/C=C/c5ccccc5)[C@@H](C)CO3)[C@@]43CO3)C(O)C2OC(C)=O)C1O (some centres not stated)
93.4

Report measured growth inhibition; entry is "Clc1ccc(Cl)c(Nc2ccnc(SCc3ccccc3)n2)c1"
25.9

Supply recorded growth inhibition for "CCCCc1[nH]nc(-c2n[nH]c(CCCC)c2C)c1C" here.
14.1

Determine its reported growth inhibition: "CCCCC(=O)CCCCCCCCC(=O)CCCC"
-8.65

Quote growth inhibition reported for COc1ccc(C(CN)c2ccc(N)cc2)cc1 (configuration not stated) please.
10.7

Give the value of growth inhibition reported for the following: CC(C)CC(C)OC(=O)CC(CC(=O)OC(C)CC(C)C)C(=O)OC(C)CC(C)C (configuration not stated)
-17.1

Hello, please tell me recorded growth inhibition for this one: "CC/C(SC)=[N+](\C)[O-]"
-6.9

Specify measured growth inhibition for "COc1ccc(Cl)cc1NC(=O)Nc1ccc(S(N)(=O)=O)cc1" .
8

Note down growth inhibition recorded for "CCCCOCCOCCOC(=O)c1ccc(C)cc1"
-11

Return the recorded growth inhibition value; entry: CC1CN(C(=S)Nc2ccccc2)CCN1c1ccccc1 (configuration not stated)
-2.35

Consider the molecule CCC(C)NC(=O)c1ccccc1 (configuration not stated) and give its recorded growth inhibition.
17.7

State its growth inhibition: "Oc1cccc2nc3ccccc3cc12"
1.15

Answer with the recorded growth inhibition of "N#CC(C#N)N=Cc1ccncc1" only.
12.2

Identify the reported growth inhibition for the following entry. "Cc1ccc(C2(c3ccc(C)cc3)OCC(C)(CBr)CO2)cc1"
-1.4

Entry "CCc1cccc(OC(=O)CCl)c1" needs its growth inhibition filled in; supply it.
7.5

Please indicate growth inhibition recorded for "Cc1ccc(S(=O)(=O)c2cc3ccccc3oc2=O)cc1"
1
